test: small molecules captured by biotinylated probe aFST – biochemical, small-molecule microarray, fluorescence 635/667, stem cell growth factor project, primary screen (AID 1086); settings: higher = more signal;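 note: score merges 667 nm fluorescence with signal-to-noise of each printed compound spot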
assay metric: composite z-score
Reply with just the number.

Consider the following illustrative entries.
COc1ccc([Si](C)(C)[C@@H]2[C@@H](CC(=O)N(CCO)Cc3ccccc3)O[C@]3(C(=O)N(C)c4c(Br)cc(C)cc43)[C@H]2C)cc1 = -0.051
O=C1C2C=CC(C(O)c3ccccn3)N(Nc3ccccc3)C2C(=O)N1c1ccccc1 (centres undefined) = 0.338
CC(C)(C)N1CC=CC23O[C@@H]4C=CCCOC(=O)C4[C@H]2C(=O)N(CCCO)[C@@H]3C1=O (some centres undefined) = -0.383

Kindly review the next compound as well.
Ask: Entry under review: `OCc1ccc(-c2cc[n+](Cc3cccc(OC(F)(F)F)c3)cc2)cc1` . Reported composite z-score?
Reply: 0.597

* * *

target: Calmodulin-1 (Homo sapiens); assay: small molecules binding calmodulin-1 with EGTA – biochemical, small-molecule microarray, Cy5-labelled CALM1, profiling panel (AID 1111); conditions: Cy5-CALM1 binding fluorescence, higher = more signal;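 note: labelled calmodulin applied in Tris saline Tween buffer holding calcium plus EGTA and DTT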
Please use rule met whenever composite z-score is not below -0.1, and rule not met whenever it is.

COC(=O)C(CC#Cc1ccc2c(c1)[C@]1(C(=O)N2)[C@H](c2ccc(O)cc2)N2[C@H](c3ccccc3)[C@H](c3ccccc3)OC(=O)[C@H]2[C@@H]1C(N)=O)C(=O)OC = rule not met
COC(=O)[C@@]1(Cc2ccc(OC)cc2)[C@H]2c3cc(C(=O)N(C)C)n(Cc4cc(C)n(C)n4)c3C[C@H]2CN1C(=O)c1ccccc1 = rule met
COCCCNC(=O)[C@]1(CCS(=O)(=O)c2ccccc2)N=C(c2ccc(OCCCO)cc2)O[C@@H]1c1ccccc1 = rule met
CC(C)CCC[C@@H](C)[C@H]1CC[C@@]2(C)C3=C(CC[C@]12C)[C@@]1(C)CC[C@H](OC(=O)c2ccc(N)cc2)C(C)(C)C1CC3 (stereo not given in full) = rule not met
COC(=O)[C@]1(Cc2ccccc2CN=[N+]=[N-])N=C(c2ccc(OCCCO)cc2)O[C@@H]1c1ccccc1CN=[N+]=[N-] = rule not met
CC(C)C[C@@H]1NC(=O)[C@@H]2C[C@H](C(=O)NCCCC[N+](C)(C)C)[C@H](c3cccc(OCCO)c3)N2C1=O = rule not met

Ask: Given the entry `C[N+](C)(C)CCCC[C@@H]1NC(=O)[C@@H]2C[C@H](C(=O)O)[C@H](c3cccc(OCCO)c3)N2C1=O` , answer whether its composite z-score meets or surpasses -0.1.
Reply: rule not met

Ask: // inclusive: composite z-score at least -0.1? input: C=CCC(OC(C)=O)[C@@H]1[C@@H](N(Cc2ccc(-c3cccc(C(F)(F)F)c3)o2)C(=O)c2cccc3ccccc23)c2cc(OCCCO)ccc2N1C(=O)c1ccc(-c2ccccc2)cc1 (stereo not given in full)
Reply: rule not met

Ask: Hi team, for `CN(C)CCCCCCNC(=O)[C@@H]1C[C@@H]2C(=O)NCC(=O)N2[C@@H]1c1ccc(O)cc1` , is the recorded composite z-score at or above -0.1?
Reply: rule not met

Ask: For this compound, is measured composite z-score -0.1 or higher? `CC(=O)NCCCC[C@@H]1NC(=O)[C@H]2C[C@@H](C(=O)NCCCCCN)[C@@H](c3cccc(OCCO)c3)N2C1=O`
Reply: rule met
